Target: PARP1 M686G/V687P (UniProt P09874 1-1014, M686G;V687P)
Sequence (P09874 whole entry M686G/V687P): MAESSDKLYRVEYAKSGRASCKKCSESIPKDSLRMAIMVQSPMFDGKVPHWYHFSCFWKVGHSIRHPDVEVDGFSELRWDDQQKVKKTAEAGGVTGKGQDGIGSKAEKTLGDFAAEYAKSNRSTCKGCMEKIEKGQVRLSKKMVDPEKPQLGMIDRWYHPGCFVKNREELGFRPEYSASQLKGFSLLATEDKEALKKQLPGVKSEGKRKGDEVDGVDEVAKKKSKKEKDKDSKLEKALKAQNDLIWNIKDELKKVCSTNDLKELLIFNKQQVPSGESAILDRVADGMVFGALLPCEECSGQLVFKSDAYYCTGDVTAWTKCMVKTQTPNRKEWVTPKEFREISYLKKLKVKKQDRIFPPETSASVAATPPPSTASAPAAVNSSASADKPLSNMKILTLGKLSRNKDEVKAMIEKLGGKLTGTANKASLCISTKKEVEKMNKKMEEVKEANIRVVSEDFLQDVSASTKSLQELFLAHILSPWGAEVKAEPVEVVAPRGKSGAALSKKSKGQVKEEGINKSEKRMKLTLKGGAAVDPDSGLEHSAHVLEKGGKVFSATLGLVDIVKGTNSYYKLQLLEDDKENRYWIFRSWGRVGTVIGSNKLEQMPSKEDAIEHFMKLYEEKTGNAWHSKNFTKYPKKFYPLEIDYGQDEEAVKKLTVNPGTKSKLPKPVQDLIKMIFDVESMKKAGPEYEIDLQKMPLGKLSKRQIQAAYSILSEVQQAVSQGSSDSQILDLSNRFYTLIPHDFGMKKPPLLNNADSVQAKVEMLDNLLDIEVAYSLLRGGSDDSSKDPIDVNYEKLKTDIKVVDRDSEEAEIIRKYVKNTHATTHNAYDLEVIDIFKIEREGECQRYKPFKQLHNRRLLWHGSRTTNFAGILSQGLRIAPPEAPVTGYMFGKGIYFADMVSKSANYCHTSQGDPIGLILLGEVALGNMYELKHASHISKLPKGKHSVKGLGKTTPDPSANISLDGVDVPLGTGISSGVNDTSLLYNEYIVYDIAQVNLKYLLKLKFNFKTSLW
Assay: fluorescence polarization
pKd: −log10 of the molar value.

Binder: 18-bp DSB duplex (dsDNA) DNA 1: GGGTTGCGGCCGCTTGGG DNA 2: CCCAAGCGGCCGCAACCC
pKd: 8.32
